Biological target: DSTYK (human) (UniProt Q6XUX3)
Sequence (Q6XUX3 whole entry, looked up): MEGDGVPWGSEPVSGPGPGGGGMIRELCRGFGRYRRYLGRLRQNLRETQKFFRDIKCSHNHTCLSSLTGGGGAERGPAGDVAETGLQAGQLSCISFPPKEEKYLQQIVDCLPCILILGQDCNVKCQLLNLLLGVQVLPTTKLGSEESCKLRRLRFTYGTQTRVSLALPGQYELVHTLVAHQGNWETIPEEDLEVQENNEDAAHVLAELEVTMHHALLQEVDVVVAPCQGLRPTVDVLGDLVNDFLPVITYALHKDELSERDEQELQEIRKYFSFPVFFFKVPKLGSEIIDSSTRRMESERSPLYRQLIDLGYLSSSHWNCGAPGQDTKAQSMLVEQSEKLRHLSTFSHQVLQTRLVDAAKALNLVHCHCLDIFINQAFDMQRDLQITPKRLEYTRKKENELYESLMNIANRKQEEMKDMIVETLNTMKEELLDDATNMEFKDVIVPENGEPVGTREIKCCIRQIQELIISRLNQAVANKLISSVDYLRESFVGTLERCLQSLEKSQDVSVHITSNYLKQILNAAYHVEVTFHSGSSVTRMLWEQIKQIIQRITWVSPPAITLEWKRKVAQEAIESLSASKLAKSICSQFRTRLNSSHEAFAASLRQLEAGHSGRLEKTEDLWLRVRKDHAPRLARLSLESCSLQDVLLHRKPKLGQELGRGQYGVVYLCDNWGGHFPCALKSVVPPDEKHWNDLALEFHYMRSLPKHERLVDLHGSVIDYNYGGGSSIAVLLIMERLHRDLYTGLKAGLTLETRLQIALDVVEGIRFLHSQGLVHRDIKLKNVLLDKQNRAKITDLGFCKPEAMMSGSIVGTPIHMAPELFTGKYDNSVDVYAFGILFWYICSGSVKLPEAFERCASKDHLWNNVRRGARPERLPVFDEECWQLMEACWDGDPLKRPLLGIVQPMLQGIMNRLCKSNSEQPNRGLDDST
Test: KINOMEscan competition binding
Conditions: compound 10.0 µM
valueKind: kinase still bound, per cent of control (%)

- CCOc1cc2ncc(C#N)c(Nc3ccc(OCc4ccccn4)c(Cl)c3)c2cc1NC(=O)/C=C/CN(C)C: 69
- Nc1ccc(-c2ccc3ncc4ccc(=O)n(-c5cccc(C(F)(F)F)c5)c4c3c2)cn1: 88
- CN(C)C/C=C/C(=O)Nc1cccc(Nc2ncc3c(n2)N(C)c2ccccc2C(=O)N3C)c1: 18
- Cc1ccc(NC(=O)c2cccc(C(C)(C)C#N)c2)cc1Nc1ccc2ncn(C)c(=O)c2c1: 78
- O=C(O)c1ccc(Nc2ncc3c(n2)-c2ccc(Cl)cc2C(c2c(F)cccc2F)=NC3)cc1: 100
- O=C(NC1CC1)c1cccc(-c2ccc3c(NC(=O)C4CC4)n[nH]c3c2)c1: 71
- CCN1CCN(Cc2ccc(Nc3ncc4c(n3)N(C)c3ccccc3C(=O)N4C)cc2C(F)(F)F)CC1: 7.1
- C=CC(=O)Nc1cc(NC(=O)c2ccc(C)c(NC(=O)c3ccno3)c2)cc(C(F)(F)F)c1: 100
- CCCS(=O)(=O)Nc1ccc(F)c(C(=O)c2c[nH]c3ncc(-c4ccc(Cl)cc4)cc23)c1F: 22

----------
Listed here: items and their measured kinase still bound, per cent of control.
Molecular target: PRKCI (human) (UniProt P41743)
Sequence (P41743 whole entry, looked up): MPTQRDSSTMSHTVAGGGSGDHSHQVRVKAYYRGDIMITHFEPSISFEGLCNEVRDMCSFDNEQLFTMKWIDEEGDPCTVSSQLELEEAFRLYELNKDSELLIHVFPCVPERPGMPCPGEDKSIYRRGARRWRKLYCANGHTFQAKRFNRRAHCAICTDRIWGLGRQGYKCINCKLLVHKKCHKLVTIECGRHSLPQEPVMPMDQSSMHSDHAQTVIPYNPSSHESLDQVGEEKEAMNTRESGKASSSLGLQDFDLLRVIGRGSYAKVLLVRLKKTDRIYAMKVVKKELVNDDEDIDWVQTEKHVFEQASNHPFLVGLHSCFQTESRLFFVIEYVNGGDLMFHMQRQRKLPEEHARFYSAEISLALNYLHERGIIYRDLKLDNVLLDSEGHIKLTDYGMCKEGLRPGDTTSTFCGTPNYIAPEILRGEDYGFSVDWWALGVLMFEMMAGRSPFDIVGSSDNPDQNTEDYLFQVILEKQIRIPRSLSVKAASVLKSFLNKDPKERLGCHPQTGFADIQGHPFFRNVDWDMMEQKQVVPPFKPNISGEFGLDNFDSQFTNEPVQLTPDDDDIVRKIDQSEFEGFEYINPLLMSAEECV
Assay: KINOMEscan competition binding
Details: compound 10.0 µM
valueKind: kinase still bound, per cent of control (%)

• O=C(O)c1ccc(Nc2ncc3c(n2)-c2ccc(Cl)cc2C(c2c(F)cccc2F)=NC3)cc1 = 100
• CCOc1cc2ncc(C#N)c(Nc3ccc(OCc4ccccn4)c(Cl)c3)c2cc1NC(=O)/C=C/CN(C)C = 90
• CCCS(=O)(=O)Nc1ccc(F)c(C(=O)c2c[nH]c3ncc(-c4ccc(Cl)cc4)cc23)c1F = 100
• CCN1CCN(Cc2ccc(Nc3ncc4c(n3)N(C)c3ccccc3C(=O)N4C)cc2C(F)(F)F)CC1 = 100
• O=C(NC1CC1)c1cccc(-c2ccc3c(NC(=O)C4CC4)n[nH]c3c2)c1 = 74
• O=C1Nc2ccc(I)cc2/C1=C/c1cc(Br)c(O)c(Br)c1 = 100
• C=CC(=O)Nc1cc(NC(=O)c2ccc(C)c(NC(=O)c3ccno3)c2)cc(C(F)(F)F)c1 = 100

----------
Each entry below carries its recorded kinase still bound, per cent of control.
Target: MAP3K12 (human)
Assay: KINOMEscan competition binding
Conditions: compound 10.0 µM
valueKind: kinase still bound, per cent of control (%)

* CN(C)C/C=C/C(=O)Nc1cccc(Nc2ncc3c(n2)N(C)c2ccccc2C(=O)N3C)c1 | 38
* C=CC(=O)Nc1cc(NC(=O)c2ccc(C)c(NC(=O)c3ccno3)c2)cc(C(F)(F)F)c1 | 100
* CCOc1cc2ncc(C#N)c(Nc3ccc(OCc4ccccn4)c(Cl)c3)c2cc1NC(=O)/C=C/CN(C)C | 36
* Cc1cc([C@@H](C)Nc2ccccc2C(=O)O)c2nc(N3CCOCC3)cc(=O)n2c1 | 85
* C=CC(=O)Nc1cccc(Oc2nc(Nc3ccc(N4CCN(C)CC4)cc3OC)ncc2Cl)c1 | 100
* CCC(=O)N1CCN(c2ccc(-n3c(=O)ccc4cnc5ccc(-c6cnc7ccccc7c6)cc5c43)cc2C(F)(F)F)CC1 | 100
* OCCCNc1cc(-c2ccnc(Nc3cccc(Cl)c3)n2)ccn1 | 100
* CCN1CCN(Cc2ccc(Nc3ncc4c(n3)N(C)c3ccccc3C(=O)N4C)cc2C(F)(F)F)CC1 | 49
* COc1cc(N2CCN(C)CC2)ccc1Nc1nc(N)c(C(=O)c2c(Cl)cccc2Cl)s1 | 97
* O=C(O)c1ccc(Nc2ncc3c(n2)-c2ccc(Cl)cc2C(c2c(F)cccc2F)=NC3)cc1 | 100
* Nc1ccc(-c2ccc3ncc4ccc(=O)n(-c5cccc(C(F)(F)F)c5)c4c3c2)cn1 | 100

----------
Molecular target: TNK2 (human)
Assay: KINOMEscan competition binding
Settings: compound 10.0 µM
valueKind: kinase still bound, per cent of control (%)

* COc1cc(N2CCN(C)CC2)ccc1Nc1nc(N)c(C(=O)c2c(Cl)cccc2Cl)s1 | 97
* C=CC(=O)Nc1cc(NC(=O)c2ccc(C)c(NC(=O)c3ccno3)c2)cc(C(F)(F)F)c1 | 84
* O=C(NOC[C@H](O)CO)c1ccc(F)c(F)c1Nc1ccc(I)cc1F | 72
* C=CC(=O)Nc1cccc(Nc2nc(N[C@H]3CC[C@H](N(C)C)CC3)nc3c2ncn3C(C)C)c1 | 46
* Cc1ccc2nc(NCCN)c3ncc(C)n3c2c1 | 100
* CCOc1cc2ncc(C#N)c(Nc3ccc(OCc4ccccn4)c(Cl)c3)c2cc1NC(=O)/C=C/CN(C)C | 40
* Cn1c(=O)n(-c2ccc(C(C)(C)C#N)cc2)c2c3cc(-c4cnc5ccccc5c4)ccc3ncc21 | 100
* Nc1ccc(-c2ccc3ncc4ccc(=O)n(-c5cccc(C(F)(F)F)c5)c4c3c2)cn1 | 100
* CN(C)C/C=C/C(=O)Nc1cccc(Nc2ncc3c(n2)N(C)c2ccccc2C(=O)N3C)c1 | 4.4

----------
Target: FLT1 (human) (UniProt P17948)
Sequence (P17948 whole entry, looked up): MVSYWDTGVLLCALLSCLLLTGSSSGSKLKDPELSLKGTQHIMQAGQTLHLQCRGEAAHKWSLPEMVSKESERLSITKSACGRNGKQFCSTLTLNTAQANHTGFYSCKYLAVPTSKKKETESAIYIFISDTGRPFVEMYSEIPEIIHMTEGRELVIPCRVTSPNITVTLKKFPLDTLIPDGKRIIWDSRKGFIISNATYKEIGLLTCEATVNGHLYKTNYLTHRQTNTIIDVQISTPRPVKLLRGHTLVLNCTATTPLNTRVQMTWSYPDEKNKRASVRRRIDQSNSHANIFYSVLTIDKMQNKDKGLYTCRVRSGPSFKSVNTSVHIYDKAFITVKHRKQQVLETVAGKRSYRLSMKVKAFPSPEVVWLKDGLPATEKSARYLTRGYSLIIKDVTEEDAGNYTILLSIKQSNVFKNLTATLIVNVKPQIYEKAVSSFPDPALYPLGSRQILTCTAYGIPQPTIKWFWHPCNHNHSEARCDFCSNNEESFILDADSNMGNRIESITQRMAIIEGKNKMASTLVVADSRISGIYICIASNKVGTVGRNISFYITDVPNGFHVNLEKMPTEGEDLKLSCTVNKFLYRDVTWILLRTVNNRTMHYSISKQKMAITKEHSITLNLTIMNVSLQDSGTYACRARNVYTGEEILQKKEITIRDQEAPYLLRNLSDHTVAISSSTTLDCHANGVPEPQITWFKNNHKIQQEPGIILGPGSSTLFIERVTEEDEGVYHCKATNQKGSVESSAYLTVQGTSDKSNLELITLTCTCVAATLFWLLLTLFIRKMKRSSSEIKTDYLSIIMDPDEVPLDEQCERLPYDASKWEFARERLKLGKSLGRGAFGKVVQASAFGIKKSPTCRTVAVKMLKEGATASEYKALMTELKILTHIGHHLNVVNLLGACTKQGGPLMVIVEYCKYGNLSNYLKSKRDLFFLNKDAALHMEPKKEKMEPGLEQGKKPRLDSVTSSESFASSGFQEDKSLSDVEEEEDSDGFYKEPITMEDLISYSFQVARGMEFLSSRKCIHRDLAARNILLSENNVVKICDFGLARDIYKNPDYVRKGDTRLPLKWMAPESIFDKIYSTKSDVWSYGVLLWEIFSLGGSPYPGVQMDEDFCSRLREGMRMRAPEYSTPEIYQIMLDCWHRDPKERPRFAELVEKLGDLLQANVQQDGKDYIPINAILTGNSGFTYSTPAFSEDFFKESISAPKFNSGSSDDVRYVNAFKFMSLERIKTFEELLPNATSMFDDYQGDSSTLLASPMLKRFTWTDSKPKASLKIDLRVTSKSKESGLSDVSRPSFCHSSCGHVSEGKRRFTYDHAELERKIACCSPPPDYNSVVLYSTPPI
Experiment: KINOMEscan competition binding
Details: compound 10.0 µM
Recorded kinase still bound, per cent of control for the following compounds
valueKind: kinase still bound, per cent of control (%)

• CN(C)C/C=C/C(=O)Nc1cccc(Nc2ncc3c(n2)N(C)c2ccccc2C(=O)N3C)c1 = 83
• COc1cc(N2CCN(C)CC2)ccc1Nc1nc(N)c(C(=O)c2c(Cl)cccc2Cl)s1 = 100
• Cc1ccc2nc(NCCN)c3ncc(C)n3c2c1 = 98
• CCN1CCN(Cc2ccc(Nc3ncc4c(n3)N(C)c3ccccc3C(=O)N4C)cc2C(F)(F)F)CC1 = 100
• Cc1ccc(C(=O)Nc2cccc(C(F)(F)F)c2)cc1Nc1cncc(C(N)=O)c1 = 33
• COc1cc(C(=O)NC2CCN(C)CC2)ccc1Nc1ncc2c(n1)N(C1CCCC1)C(C)CC(=O)N2C (stereo not drawn) = 100
• O=C(O)c1ccc(Nc2ncc3c(n2)-c2ccc(Cl)cc2C(c2c(F)cccc2F)=NC3)cc1 = 12
• C=CC(=O)Nc1cccc(Oc2nc(Nc3ccc(N4CCN(C)CC4)cc3OC)ncc2Cl)c1 = 100
• C=CC(=O)Nc1cc(NC(=O)c2ccc(C)c(NC(=O)c3ccno3)c2)cc(C(F)(F)F)c1 = 100
• Cn1c(=O)n(-c2ccc(C(C)(C)C#N)cc2)c2c3cc(-c4cnc5ccccc5c4)ccc3ncc21 = 100
• COc1cc(C(=O)NC2CCN(C)CC2)ccc1Nc1ncc2c(n1)N(C1CCCC1)CCC(=O)N2C(C)C = 100
• C[C@@H](Oc1cc(-n2cnc3ccc(CN4CCN(C)CC4)cc32)sc1C(N)=O)c1ccccc1C(F)(F)F = 100
• O=C(NC1CC1)c1cccc(-c2ccc3c(NC(=O)C4CC4)n[nH]c3c2)c1 = 100
• C=CC(=O)Nc1cccc(Nc2nc(N[C@H]3CC[C@H](N(C)C)CC3)nc3c2ncn3C(C)C)c1 = 100
• Cc1cc([C@@H](C)Nc2ccccc2C(=O)O)c2nc(N3CCOCC3)cc(=O)n2c1 = 83
• Nc1ccc(-c2ccc3ncc4ccc(=O)n(-c5cccc(C(F)(F)F)c5)c4c3c2)cn1 = 100
• Cc1ccc(NC(=O)c2cccc(C(C)(C)C#N)c2)cc1Nc1ccc2ncn(C)c(=O)c2c1 = 4.4
• CC[C@@H]1C(=O)N(C)c2cnc(Nc3ccc(C(=O)NC4CCN(C)CC4)cc3OC)nc2N1C1CCCC1 = 100

----------
Target: CSNK1A1 (human)
Assay: KINOMEscan competition binding
Conditions: compound 10.0 µM
valueKind: kinase still bound, per cent of control (%)

* CN(C)C/C=C/C(=O)Nc1cccc(Nc2ncc3c(n2)N(C)c2ccccc2C(=O)N3C)c1 | 26
* Cc1cc([C@@H](C)Nc2ccccc2C(=O)O)c2nc(N3CCOCC3)cc(=O)n2c1 | 63
* Nc1ccc(-c2ccc3ncc4ccc(=O)n(-c5cccc(C(F)(F)F)c5)c4c3c2)cn1 | 94
* O=C(NC1CC1)c1cccc(-c2ccc3c(NC(=O)C4CC4)n[nH]c3c2)c1 | 100
* CCOc1cc2ncc(C#N)c(Nc3ccc(OCc4ccccn4)c(Cl)c3)c2cc1NC(=O)/C=C/CN(C)C | 100
* CCN1CCN(Cc2ccc(Nc3ncc4c(n3)N(C)c3ccccc3C(=O)N4C)cc2C(F)(F)F)CC1 | 16
* Cc1ccc(NC(=O)c2cccc(C(C)(C)C#N)c2)cc1Nc1ccc2ncn(C)c(=O)c2c1 | 100
* N#Cc1c(NC(=O)c2cccc3ccccc23)sc2c1CCCC2 | 100
* Cc1ccc2nc(NCCN)c3ncc(C)n3c2c1 | 68

----------
Target: HIPK1 (human) (UniProt Q86Z02)
Sequence (Q86Z02 whole entry, looked up): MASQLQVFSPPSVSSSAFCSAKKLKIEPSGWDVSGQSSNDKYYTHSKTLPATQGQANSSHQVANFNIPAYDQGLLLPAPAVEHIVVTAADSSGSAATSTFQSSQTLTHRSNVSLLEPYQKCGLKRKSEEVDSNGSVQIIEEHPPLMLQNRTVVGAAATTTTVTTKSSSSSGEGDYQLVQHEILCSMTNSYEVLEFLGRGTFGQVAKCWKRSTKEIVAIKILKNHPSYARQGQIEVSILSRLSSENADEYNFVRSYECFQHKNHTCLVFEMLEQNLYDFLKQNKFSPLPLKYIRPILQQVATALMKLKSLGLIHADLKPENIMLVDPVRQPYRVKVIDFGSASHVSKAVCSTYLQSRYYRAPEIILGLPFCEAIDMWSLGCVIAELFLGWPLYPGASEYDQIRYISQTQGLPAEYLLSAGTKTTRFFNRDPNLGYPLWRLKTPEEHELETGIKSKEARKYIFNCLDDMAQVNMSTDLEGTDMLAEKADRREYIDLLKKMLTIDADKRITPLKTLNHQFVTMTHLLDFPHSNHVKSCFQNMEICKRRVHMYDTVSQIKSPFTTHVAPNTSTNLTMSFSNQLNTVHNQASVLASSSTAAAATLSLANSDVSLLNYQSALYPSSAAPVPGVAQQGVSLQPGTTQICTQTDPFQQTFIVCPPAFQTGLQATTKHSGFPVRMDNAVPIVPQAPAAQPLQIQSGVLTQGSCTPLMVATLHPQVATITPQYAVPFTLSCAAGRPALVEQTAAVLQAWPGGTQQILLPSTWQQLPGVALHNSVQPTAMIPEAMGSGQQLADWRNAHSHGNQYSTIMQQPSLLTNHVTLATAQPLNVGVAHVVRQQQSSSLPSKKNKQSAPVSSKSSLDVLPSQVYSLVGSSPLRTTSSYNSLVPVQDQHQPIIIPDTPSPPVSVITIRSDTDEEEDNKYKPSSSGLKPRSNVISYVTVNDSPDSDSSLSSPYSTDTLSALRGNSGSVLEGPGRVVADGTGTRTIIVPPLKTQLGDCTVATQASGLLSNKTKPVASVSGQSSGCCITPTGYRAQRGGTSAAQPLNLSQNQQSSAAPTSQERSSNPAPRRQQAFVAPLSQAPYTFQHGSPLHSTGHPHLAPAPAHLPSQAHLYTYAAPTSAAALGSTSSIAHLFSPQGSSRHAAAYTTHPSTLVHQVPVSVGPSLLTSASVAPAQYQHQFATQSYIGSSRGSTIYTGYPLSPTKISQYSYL
Test: KINOMEscan competition binding
Settings: compound 10.0 µM
valueKind: kinase still bound, per cent of control (%)

* COc1cc(C(=O)NC2CCN(C)CC2)ccc1Nc1ncc2c(n1)N(C1CCCC1)C(C)CC(=O)N2C (centres undefined) | 100
* O=C1Nc2ccc(I)cc2/C1=C/c1cc(Br)c(O)c(Br)c1 | 11
* OCCCNc1cc(-c2ccnc(Nc3cccc(Cl)c3)n2)ccn1 | 4.6
* C[C@@H](Oc1cc(-n2cnc3ccc(CN4CCN(C)CC4)cc32)sc1C(N)=O)c1ccccc1C(F)(F)F | 40
* Nc1ccc(-c2ccc3ncc4ccc(=O)n(-c5cccc(C(F)(F)F)c5)c4c3c2)cn1 | 79
* C=CC(=O)Nc1cccc(Nc2nc(N[C@H]3CC[C@H](N(C)C)CC3)nc3c2ncn3C(C)C)c1 | 25
* O=C(O)c1ccc(Nc2ncc3c(n2)-c2ccc(Cl)cc2C(c2c(F)cccc2F)=NC3)cc1 | 14
* CCOc1cc2ncc(C#N)c(Nc3ccc(OCc4ccccn4)c(Cl)c3)c2cc1NC(=O)/C=C/CN(C)C | 71
* CN(C)C/C=C/C(=O)Nc1cccc(Nc2ncc3c(n2)N(C)c2ccccc2C(=O)N3C)c1 | 76
* CC[C@@H]1C(=O)N(C)c2cnc(Nc3ccc(C(=O)NC4CCN(C)CC4)cc3OC)nc2N1C1CCCC1 | 100
* O=C(NOC[C@H](O)CO)c1ccc(F)c(F)c1Nc1ccc(I)cc1F | 91
* Cn1c(=O)n(-c2ccc(C(C)(C)C#N)cc2)c2c3cc(-c4cnc5ccccc5c4)ccc3ncc21 | 100
* CCN1CCN(Cc2ccc(Nc3ncc4c(n3)N(C)c3ccccc3C(=O)N4C)cc2C(F)(F)F)CC1 | 78
* CCC(=O)N1CCN(c2ccc(-n3c(=O)ccc4cnc5ccc(-c6cnc7ccccc7c6)cc5c43)cc2C(F)(F)F)CC1 | 63
* C=CC(=O)Nc1cc(NC(=O)c2ccc(C)c(NC(=O)c3ccno3)c2)cc(C(F)(F)F)c1 | 97
* COc1cc(N2CCN(C)CC2)ccc1Nc1nc(N)c(C(=O)c2c(Cl)cccc2Cl)s1 | 69
* CCCS(=O)(=O)Nc1ccc(F)c(C(=O)c2c[nH]c3ncc(-c4ccc(Cl)cc4)cc23)c1F | 90
* N#Cc1c(NC(=O)c2cccc3ccccc23)sc2c1CCCC2 | 91
* C=CC(=O)Nc1cccc(Oc2nc(Nc3ccc(N4CCN(C)CC4)cc3OC)ncc2Cl)c1 | 100
